# TARGET: UniProt O75116
# ASSAY NOTES: Inhibition of human N-terminal GST-tagged ROCK2 expressed in baculovirus-infected insect cells using long S6 kinase peptide as substrate by radiometric assay in presence of [32P]ATP
MEASURED ENDPOINT: pIC50
Keep in mind that pIC50 stands for -log10 of concentration in molar terms.

>  <COMPOUND>
COC(=O)c1cccc(NC(=O)c2cccc(-c3cc(C(=O)Nc4ccncc4F)ccc3CN)c2)c1F

>  <TARGET>
UniProt O75116

>  <READOUT NUMBER>
8.92

$$$$
>  <COMPOUND>
NCc1ccc(C(=O)Nc2ccncc2F)cc1-c1cccc(C(=O)Nc2cccc(C(=O)O)c2)c1

>  <TARGET>
UniProt O75116

>  <READOUT NUMBER>
8.18

$$$$
>  <COMPOUND>
NCc1ccc(C(=O)Nc2ccncc2F)cc1-c1cccc(C(=O)Nc2ccc(CC(=O)OC3CCC3)cc2)c1

>  <TARGET>
UniProt O75116

>  <READOUT NUMBER>
8.89

$$$$
>  <COMPOUND>
CCCCOC(=O)c1cccc(NC(=O)c2cccc(-c3cc(C(=O)Nc4ccncc4F)ccc3CN)c2)c1

>  <TARGET>
UniProt O75116

>  <READOUT NUMBER>
7.57

$$$$
>  <COMPOUND>
COC(=O)Cc1cccc(NC(=O)c2cccc(-c3cc(C(=O)Nc4ccncc4F)ccc3CN)c2)c1

>  <TARGET>
UniProt O75116

>  <READOUT NUMBER>
8.96

$$$$

According to the records, this compound C[C@H]1CNCCCN1S(=O)(=O)c1cccc2cncc(F)c12 displays pIC50 of 8.42

The measured pIC50 associated with CC(C)OC(=O)c1cccc(NC(=O)c2cccc(-c3cc(C(=O)Nc4ccncc4F)ccc3CN)c2)c1 reads 8.15

* * *

# ASSAY NOTES: Cmax in NewZealand white rabbit plasma at 0.1 mg/kg, iv after 5 mins by LC-MS/MS analysis
# Format: ADME, organism-based, Oryctolagus cuniculus
# Design: dose 0.1 mg/kg, route intravenous
# CONDITION LABEL: New Zealand white
MEASURED ENDPOINT: Cmax (nM)
The response must be a number in nM with no trailing unit.

Short answer for COC(=O)c1ccc(NC(=O)c2cccc(-c3cc(C(=O)Nc4ccncc4F)ccc3CN)c2)cc1 : Cmax was 176

* * *

# ASSAY NOTES: Half life in NewZealand white rabbit plasma at 0.1 mg/kg, iv by LC-MS/MS analysis
# Type: ADME, organism-based, Oryctolagus cuniculus
# Set-up: dose 0.1 mg/kg, route intravenous
# CONDITION LABEL: New Zealand white
MEASURED ENDPOINT: half-life (min)
State the answer as a number, implicitly in min.

Looking up COC(=O)c1ccc(NC(=O)c2cccc(-c3cc(C(=O)Nc4ccncc4F)ccc3CN)c2)cc1 , I see its half-life listed as 22

* * *

# ASSAY NOTES: Lipophilicity, log D of the compound at pH 7.4
# Format: physicochemical
# CONDITION LABEL: buffer
MEASURED ENDPOINT: logD

>  <SMILES STRING>
NCc1ccc(C(=O)Nc2ccncc2F)cc1-c1cccc(C(=O)Nc2ccc(C(=O)O)cc2)c1

>  <RESULT>
0.56

$$$$

Now take the following compound into account.
// logD value for COC(=O)c1ccc(NC(=O)c2cccc(-c3cc(C(=O)Nc4ccncc4F)ccc3CN)c2)cc1 : 2.74

* * *

# ASSAY NOTES: Half life in human plasma by LC-MS/MS analysis
# Assay type: ADME, cell-free
MEASURED ENDPOINT: log10 half-life (log10 of the value in min)
Use the decimal logarithm of half-life (min).

>  <COMPOUND>
CCC(C)OC(=O)c1cccc(NC(=O)c2cccc(-c3cc(C(=O)Nc4ccncc4F)ccc3CN)c2)c1 (stereo unspecified)

>  <READOUT NUMBER>
1.20

$$$$
>  <COMPOUND>
CC[C@@H](C)OC(=O)c1ccc(F)c(NC(=O)c2cccc(-c3cc(C(=O)Nc4ccncc4F)ccc3CN)c2)c1

>  <READOUT NUMBER>
1.66

$$$$
>  <COMPOUND>
CC(C)OC(=O)Cc1ccc(NC(=O)c2cccc(-c3cc(C(=O)Nc4ccncc4F)ccc3CN)c2)cc1

>  <READOUT NUMBER>
1.97

$$$$

So, COC(=O)c1cccc(C(=O)Nc2cccc(-c3cc(C(=O)Nc4ccncc4F)ccc3CN)c2)c1 ? Its log10 half-life was 1.81

Briefly, log10 half-life measured for NCc1ccc(C(=O)Nc2ccncc2F)cc1-c1cccc(C(=O)Nc2ccc(CC(=O)OC3CCOCC3)cc2)c1 : 0.85

Short answer for CC[C@H](C)OC(=O)c1ccc(F)c(NC(=O)c2cccc(-c3cc(C(=O)Nc4ccncc4F)ccc3CN)c2)c1 : log10 half-life was 1.59

Consider COC(=O)c1ccc(F)c(C(=O)Nc2cccc(-c3cc(C(=O)Nc4ccncc4F)ccc3CN)c2)c1 . Its measured log10 half-life is 1.72

* * *

# ASSAY NOTES: Apparent permeability across human Caco2 cells
# Type: ADME, cell-based
# CONDITION LABEL: Caco-2
MEASURED ENDPOINT: Papp (×10⁻⁶ cm/s)
Answer in ×10⁻⁶ cm/s, number only, no unit symbol.

Some solved entries appear below for comparison.
>  <SMILES STRING>
COC(=O)c1ccc(NC(=O)c2cccc(-c3cc(C(=O)Nc4ccncc4F)ccc3CN)c2)cc1

>  <Papp / ×10⁻⁶ cm/s>
0.8

$$$$
>  <SMILES STRING>
NCc1ccc(C(=O)Nc2ccncc2F)cc1-c1cccc(C(=O)Nc2ccccc2)c1

>  <Papp / ×10⁻⁶ cm/s>
2.3

$$$$

Noted for NCc1ccc(C(=O)Nc2ccncc2F)cc1-c1cccc(C(=O)Nc2ccc(C(=O)O)cc2)c1 : its Papp reads 0.08

* * *

# ASSAY NOTES: Stability in human plasma assessed as compound remaining after 60 mins by LC-MS/MS analysis in presence of 5 uM cholinesterase inhibitor tacrine
# Format: ADME, cell-free
# CONDITION LABEL: with tacrine (cholinesterase inhibitor), read-out: Stability
MEASURED ENDPOINT: remaining at 1 h (%)
# output: bare number, implied unit %

Consider the reported remaining at 1 h for these molecules:
>  <SMILES STRING>
COC(=O)c1ccc(F)c(C(=O)Nc2cccc(-c3cc(C(=O)Nc4ccncc4F)ccc3CN)c2)c1

>  <MEASURED ENDPOINT>
remaining at 1 h

>  <READOUT NUMBER>
103

$$$$
>  <SMILES STRING>
NCc1ccc(C(=O)Nc2ccncc2F)cc1-c1cccc(C(=O)Nc2ccc(CC(=O)OC3CCCC3)cc2)c1

>  <MEASURED ENDPOINT>
remaining at 1 h

>  <READOUT NUMBER>
100

$$$$
>  <SMILES STRING>
COCCOC(=O)c1ccc(F)c(C(=O)Nc2cccc(-c3cc(C(=O)Nc4ccncc4F)ccc3CN)c2)c1

>  <MEASURED ENDPOINT>
remaining at 1 h

>  <READOUT NUMBER>
88

$$$$
>  <SMILES STRING>
CC[C@H](C)OC(=O)Cc1ccc(NC(=O)c2cccc(-c3cc(C(=O)Nc4ccncc4F)ccc3CN)c2)cc1

>  <MEASURED ENDPOINT>
remaining at 1 h

>  <READOUT NUMBER>
101

$$$$
>  <SMILES STRING>
COC(=O)c1ccc(F)c(NC(=O)c2cccc(-c3cc(C(=O)Nc4ccncc4F)ccc3CN)c2)c1

>  <MEASURED ENDPOINT>
remaining at 1 h

>  <READOUT NUMBER>
98

$$$$

Input NCc1ccc(C(=O)Nc2ccncc2F)cc1-c1cccc(C(=O)Nc2ccc(CC(=O)OC3CCOCC3)cc2)c1 . Output remaining at 1 h: 82

* * *

Here the recorded half-life is given for each entry.
# ASSAY NOTES: Half life in human plasma by LC-MS/MS analysis
# Format: ADME, cell-free
All answers are understood in min, so give the number only.

>  <SMILES STRING>
NCc1ccc(C(=O)Nc2ccncc2F)cc1-c1cccc(C(=O)Nc2ccc(CC(=O)OC3CCC3)cc2)c1

>  <MEASURED ENDPOINT>
half-life

>  <READOUT NUMBER>
6

$$$$

From here, focus on the item given below.
compound NCc1ccc(C(=O)Nc2ccncc2F)cc1-c1cccc(C(=O)Nc2cccc(C(=O)OC3CCCC3)c2F)c1 , half-life observed: 9

* * *

# TARGET: Rho-associated protein kinase 2 (Homo sapiens, UniProt O75116)
# Sequence (O75116 whole entry): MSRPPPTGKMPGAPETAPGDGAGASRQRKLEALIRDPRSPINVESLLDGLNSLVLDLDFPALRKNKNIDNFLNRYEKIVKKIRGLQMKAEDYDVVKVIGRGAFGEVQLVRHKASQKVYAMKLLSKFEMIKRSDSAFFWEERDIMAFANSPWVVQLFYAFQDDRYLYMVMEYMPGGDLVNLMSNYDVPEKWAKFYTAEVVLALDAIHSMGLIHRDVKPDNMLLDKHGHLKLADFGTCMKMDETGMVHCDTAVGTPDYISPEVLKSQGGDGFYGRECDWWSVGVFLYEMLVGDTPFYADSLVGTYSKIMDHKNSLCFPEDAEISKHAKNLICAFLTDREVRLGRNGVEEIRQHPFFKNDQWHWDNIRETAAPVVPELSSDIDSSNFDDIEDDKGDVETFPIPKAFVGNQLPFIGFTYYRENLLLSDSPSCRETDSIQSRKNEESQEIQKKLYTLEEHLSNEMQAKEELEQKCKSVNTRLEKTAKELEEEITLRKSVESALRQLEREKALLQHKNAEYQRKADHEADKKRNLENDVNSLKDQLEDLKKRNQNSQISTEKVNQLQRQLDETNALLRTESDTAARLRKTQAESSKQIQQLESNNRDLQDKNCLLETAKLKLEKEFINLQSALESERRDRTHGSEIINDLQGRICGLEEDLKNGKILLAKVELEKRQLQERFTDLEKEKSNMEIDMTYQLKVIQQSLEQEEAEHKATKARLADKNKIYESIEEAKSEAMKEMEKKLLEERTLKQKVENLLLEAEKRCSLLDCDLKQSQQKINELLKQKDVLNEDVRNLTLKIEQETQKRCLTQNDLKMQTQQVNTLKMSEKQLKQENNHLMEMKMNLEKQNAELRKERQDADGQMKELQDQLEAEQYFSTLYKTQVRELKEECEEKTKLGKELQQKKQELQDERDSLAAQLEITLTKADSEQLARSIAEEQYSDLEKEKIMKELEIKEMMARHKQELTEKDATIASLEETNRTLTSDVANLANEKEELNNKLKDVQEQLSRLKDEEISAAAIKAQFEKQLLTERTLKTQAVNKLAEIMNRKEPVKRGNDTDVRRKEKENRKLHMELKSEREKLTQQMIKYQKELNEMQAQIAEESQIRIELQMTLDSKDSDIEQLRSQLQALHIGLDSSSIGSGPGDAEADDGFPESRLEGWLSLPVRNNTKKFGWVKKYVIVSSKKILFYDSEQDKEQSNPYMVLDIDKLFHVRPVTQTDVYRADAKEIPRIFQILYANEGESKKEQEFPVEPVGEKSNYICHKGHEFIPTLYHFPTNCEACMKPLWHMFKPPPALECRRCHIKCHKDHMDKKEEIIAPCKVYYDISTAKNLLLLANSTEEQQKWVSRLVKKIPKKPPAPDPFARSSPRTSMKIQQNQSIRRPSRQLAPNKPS
# ASSAY NOTES: Inhibition of human N-terminal GST-tagged ROCK2 expressed in baculovirus-infected insect cells using long S6 kinase peptide as substrate by radiometric assay in presence of [32P]ATP and 200 uM ATP
hey, just use Y if measured IC50 is less than 9 nM, otherwise N

stdin: Hello, is IC50 of the following compound strictly smaller than 9 nM? NCc1ccc(C(=O)Nc2ccncc2F)cc1-c1cccc(C(=O)Nc2ccc(CC(=O)OC3CCOCC3)cc2)c1
stdout: Y

stdin: For CC(C)OC(=O)Cc1ccc(NC(=O)c2cccc(-c3cc(C(=O)Nc4ccncc4F)ccc3CN)c2)cc1 , is the recorded IC50 below the cut-off of 9 nM?
stdout: Y

stdin: I'd appreciate it if you could check whether NCc1ccc(C(=O)Nc2ccncc2F)cc1-c1cccc(C(=O)Nc2ccc(CC(=O)OC3CCC3)cc2)c1 has IC50 smaller than 9 nM.
stdout: Y

stdin: Bench note: check whether NCc1ccc(C(=O)Nc2ccncc2F)cc1-c1cccc(C(=O)Nc2ccccc2)c1 shows IC50 below 9 nM
stdout: N

stdin: Is IC50 strictly under 9 nM for the entry COC(=O)c1ccc(NC(=O)c2cccc(-c3cc(C(=O)Nc4ccncc4F)ccc3CN)c2)cc1 ?
stdout: Y

stdin: Confirm or reject: IC50 of COCCOC(=O)c1ccc(F)c(C(=O)Nc2cccc(-c3cc(C(=O)Nc4ccncc4F)ccc3CN)c2)c1 lies strictly below 9 nM
stdout: Y

stdin: In plain terms, does COC(=O)c1cccc(C(=O)Nc2cccc(-c3cc(C(=O)Nc4ccncc4F)ccc3CN)c2)c1 come in under 9 nM for IC50?
stdout: Y

stdin: Lab note: IC50 threshold 9 nM. Does this compound come in strictly under it? C[C@H]1CNCCCN1S(=O)(=O)c1cccc2cncc(F)c12
stdout: N

stdin: Answer whether the compound COC(=O)Cc1ccc(NC(=O)c2cccc(-c3cc(C(=O)Nc4ccncc4F)ccc3CN)c2)cc1 has IC50 strictly less than 9 nM
stdout: N

stdin: For COC(=O)Cc1cccc(NC(=O)c2cccc(-c3cc(C(=O)Nc4ccncc4F)ccc3CN)c2)c1 , is the recorded IC50 below the cut-off of 9 nM?
stdout: N
